- Tested on: clonic seizures induced by pentylenetetrazole
- experiment: Pentylenetetrazole seizure test
- Format: in vivo
- condition.label: dose 0.0001 M i.c.v., 15 min before PTZ 60 mg/kg i.p., mice
test.readout: Protection (%)
Report as a plain number; the unit % is understood.

Before answering, review these 3 worked examples.
# compound, Protection (%)
data = [
    ("O=C(O)Cc1ccccc1", 0),
    ("CCC(C(=O)O)c1ccccc1 (stereo not shown)", 0),
    ("O=C(O)Cc1ccc(-c2ccccc2)cc1", 15),
]

Which measured Protection (%) belongs to O=C(O)CCCc1ccccc1 , tested on clonic seizures induced by pentylenetetrazole? 25
